# DC50 per entry
target: PLK1 (Homo sapiens); construct: endogenous in cells; host or cells: HeLa; test: PLK1 protein degradation in HeLa cells, Western blotting (PLK1/GAPDH ratio); format: cell-based; conditions: 6 hours compound incubation, measured only if the grade of Dmax is A or B
VALUE KIND: DC50

>>> test_result("COc1cc(C(=O)NC2CCN(CCOCCOCCOCCNc3cccc4c3C(=O)N(C3CCC(=O)NC3=O)C4=O)CC2)c(F)cc1Nc1ncc2c(n1)N(C1CCCC1)CC(F)(F)C(=O)N2C (centres unmarked) [Compound 3]")
"≤ 50 nM"
>>> test_result("CN1C(=O)C(F)(F)CN(C2CCCC2)c2nc(Nc3ccc(C(=O)NC4CCN(C(=O)CCN5CCN(c6cccc7c6C(=O)N(C6CCC(=O)NC6=O)C7=O)CC5)CC4)cc3)ncc21 (centres unmarked) [Compound 129]")
"≤ 50 nM"
>>> test_result("COc1cc(C(=O)NC2CCN(CCCOCCCNc3cccc4c3C(=O)N(C3CCC(=O)NC3=O)C4=O)CC2)c(F)cc1Nc1ncc2c(n1)N(C1CCCC1)CC(F)(F)C(=O)N2C (centres unmarked) [Compound 18]")
"≤ 500 nM"
>>> test_result("COc1cc(C(=O)NC2CCN(CCOCCNc3cccc4c3C(=O)N(C3CCC(=O)NC3=O)C4=O)CC2)c(F)cc1Nc1ncc2c(n1)N(C1CCCC1)CC(F)(F)C(=O)N2C (centres unmarked) [Compound 1]")
"≤ 50 nM"
>>> test_result("COc1cc(C(=O)NC2CCN(C(=O)CCCCCNc3cccc4c3C(=O)N(C3CCC(=O)NC3=O)C4=O)C2)c(F)cc1Nc1ncc2c(n1)N(C1CCCC1)CC(F)(F)C(=O)N2C (centres unmarked) [Compound 118]")
"≤ 50 nM"

----------
Entries and their Dmax
target: PLK1 (Homo sapiens, UniProt P53350); construct: endogenous in cells; host or cells: HeLa; experiment: PLK1 protein degradation in HeLa cells, Western blotting (PLK1/GAPDH ratio); type: cell-based; settings: thymidine block and release, 6 hours compound incubation, 10 points three-fold from 3 μM, PLK1 to GAPDH ratio, read-out: Dmax
Sequence (P53350 whole entry): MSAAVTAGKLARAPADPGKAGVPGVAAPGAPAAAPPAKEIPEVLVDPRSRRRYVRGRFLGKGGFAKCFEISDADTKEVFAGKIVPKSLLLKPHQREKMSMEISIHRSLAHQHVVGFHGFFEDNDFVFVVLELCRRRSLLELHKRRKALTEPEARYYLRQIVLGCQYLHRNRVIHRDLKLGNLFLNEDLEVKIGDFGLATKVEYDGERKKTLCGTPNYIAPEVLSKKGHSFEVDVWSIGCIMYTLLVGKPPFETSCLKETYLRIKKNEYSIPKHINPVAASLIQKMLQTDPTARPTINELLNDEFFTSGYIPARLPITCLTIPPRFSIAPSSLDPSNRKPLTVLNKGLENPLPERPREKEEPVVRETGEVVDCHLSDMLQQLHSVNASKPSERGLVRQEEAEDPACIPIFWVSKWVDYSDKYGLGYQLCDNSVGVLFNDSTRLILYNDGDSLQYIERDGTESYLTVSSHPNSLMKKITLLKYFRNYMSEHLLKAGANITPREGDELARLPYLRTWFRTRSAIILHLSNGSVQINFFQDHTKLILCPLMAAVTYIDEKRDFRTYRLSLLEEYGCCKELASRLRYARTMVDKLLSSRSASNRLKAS
VALUE KIND: Dmax

>>> test_result("COc1cc(C(=O)N[C@H]2CCN(C(=O)CCCC(=O)N3CC4(C3)CN(c3cccc5c3C(=O)N(C3CCC(=O)NC3=O)C5=O)C4)C2)c(F)cc1Nc1ncc2c(n1)N(C1CCCC1)CC(F)(F)C(=O)N2C (stereo partly shown) [Compound 149]")
"60 to 80%"
>>> test_result("CN1C(=O)C(F)(F)CN(C2CCCC2)c2nc(Nc3ccc(C(=O)N[C@H]4CCN(C(=O)CCC(=O)N5CCN(c6ccc7c(c6)C(=O)N(C6CCC(=O)NC6=O)C7=O)CC5)C4)cc3)ncc21 (stereo partly shown) [Compound 146]")
"< 60%"
>>> test_result("COc1cc(C(=O)NC2CCN(C(=O)CCN3CCN(c4cccc5c4C(=O)N(C4CCC(=O)NC4=O)C5=O)CC3)CC2)ccc1Nc1ncc2c(n1)N(C1CCCC1)CC(F)(F)C(=O)N2C (stereo not shown) [Compound 128]")
"≥ 80%"
>>> test_result("COc1cc(C(=O)NC2CCN(C(=O)CCCCCNc3cccc4c3C(=O)N(C3CCC(=O)NC3=O)C4=O)C2)c(F)cc1Nc1ncc2c(n1)N(C1CCCC1)CC(F)(F)C(=O)N2C (stereo not shown) [Compound 118]")
"≥ 80%"
>>> test_result("COc1cc(C(=O)NC2CCN(CCOCCOCCOCCOCCNc3ccc4c(c3)C(=O)N(C3CCC(=O)NC3=O)C4=O)CC2)c(F)cc1Nc1ncc2c(n1)N(C1CCCC1)CC(F)(F)C(=O)N2C (stereo not shown) [Compound 51]")
"≥ 80%"
>>> test_result("COc1cc(C(=O)N[C@H]2CCN(C(=O)CCCN3CC4(C3)CN(c3cccc5c3C(=O)N(C3CCC(=O)NC3=O)C5=O)C4)C2)c(F)cc1Nc1ncc2c(n1)N(C1CCCC1)CC(F)(F)C(=O)N2C (stereo partly shown) [Example 175]")
"≥ 80%"
>>> test_result("COc1cc(C(=O)NC2CCN(CCCCCCCCCCCNc3cccc4c3C(=O)N(C3CCC(=O)NC3=O)C4=O)CC2)c(F)cc1Nc1ncc2c(n1)N(C1CCCC1)CC(F)(F)C(=O)N2C (stereo not shown) [Compound 15]")
"60 to 80%"
>>> test_result("COc1cc(C(=O)NC2CCN(CCCCCCCNc3cccc4c3C(=O)N(C3CCC(=O)NC3=O)C4=O)CC2)c(F)cc1Nc1ncc2c(n1)N(C1CCCC1)CC(F)(F)C(=O)N2C (stereo not shown) [Compound 11]")
"60 to 80%"
>>> test_result("COc1cc(C(=O)NC2CCN(CCCOCCCNc3cccc4c3C(=O)N(C3CCC(=O)NC3=O)C4=O)C2)c(F)cc1Nc1ncc2c(n1)N(C1CCCC1)CC(F)(F)C(=O)N2C (stereo not shown) [Example 111]")
"≥ 80%"
>>> test_result("COc1cc(C(=O)NCC2CCCN2CCOCCNc2cccc3c2C(=O)N(C2CCC(=O)NC2=O)C3=O)c(F)cc1Nc1ncc2c(n1)N(C1CCCC1)CC(F)(F)C(=O)N2C (stereo not shown) [Compound 124]")
"60 to 80%"

----------
molecular target: PLK1 (Homo sapiens, UniProt P53350); construct: endogenous in cells; host or cells: HeLa; test: PLK1 protein degradation in HeLa cells, Western blotting (PLK1/GAPDH ratio); assay type: cell-based; details: thymidine block and release, 6 hours compound incubation, 10 points three-fold from 3 μM, PLK1 to GAPDH ratio, read-out: Dmax
VALUE KIND: Dmax

>>> test_result("COc1cc(C(=O)NC2CCN(Cc3cn(CCNC(=O)CNc4cccc5c4C(=O)N(C4CCC(=O)NC4=O)C5=O)nn3)CC2)c(F)cc1Nc1ncc2c(n1)N(C1CCCC1)CC(F)(F)C(=O)N2C (stereo not shown) [Compound 47]")
"< 60%"
>>> test_result("COc1cc(C(=O)NC2CCN(C(=O)CN3CCN(c4cccc5c4C(=O)N(C4CCC(=O)NC4=O)C5=O)CC3)CC2)c(F)cc1Nc1ncc2c(n1)N(C1CCCC1)CC(F)(F)C(=O)N2C (stereo not shown) [Compound 70]")
"60 to 80%"
>>> test_result("COc1cc(C(=O)N[C@@H]2CCN(C(=O)CCN3CCN(c4cccc5c4C(=O)N(C4CCC(=O)NC4=O)C5=O)CC3)C2)c(F)cc1Nc1ncc2c(n1)N(C1CCCC1)CC(F)(F)C(=O)N2C (stereo partly shown) [Compound 132]")
"≥ 80%"
>>> test_result("COc1cc(C(=O)NCCOCCOCCNc2cccc3c2C(=O)N(C2CCC(=O)NC2=O)C3=O)c(F)cc1Nc1ncc2c(n1)N(C1CCCC1)CC(F)(F)C(=O)N2C (stereo not shown) [Compound 152]")
"≥ 80%"
>>> test_result("COc1cc(C(=O)N[C@@H]2CCN(C(=O)CCCN3CCN(c4ccc5c(c4)C(=O)N(C4CCC(=O)NC4=O)C5=O)CC3)C2)c(F)cc1Nc1ncc2c(n1)N(C1CCCC1)CC(F)(F)C(=O)N2C (stereo partly shown) [Compound 138]")
"≥ 80%"
>>> test_result("COc1cc(C(=O)NC2CCN(Cc3cn(CCOCCNc4cccc5c4C(=O)N(C4CCC(=O)NC4=O)C5=O)nn3)CC2)c(F)cc1Nc1ncc2c(n1)N(C1CCCC1)CC(F)(F)C(=O)N2C (stereo not shown) [Compound 44]")
"≥ 80%"
>>> test_result("COc1cc(C(=O)NCCOCCCOCCNc2cccc3c2C(=O)N(C2CCC(=O)NC2=O)C3=O)c(F)cc1Nc1ncc2c(n1)N(C1CCCC1)CC(F)(F)C(=O)N2C (stereo not shown) [Compound 156]")
"≥ 80%"
>>> test_result("COc1cc(C(=O)NC2CCN(CCOCCNC(=O)CNc3cccc4c3C(=O)N(C3CCC(=O)NC3=O)C4=O)CC2)c(F)cc1Nc1ncc2c(n1)N(C1CCCC1)CC(F)(F)C(=O)N2C (stereo not shown) [Compound 29]")
"≥ 80%"
>>> test_result("CN1C(=O)C(F)(F)CN(C2CCCC2)c2nc(Nc3ccc(C(=O)NC4CCN(CCOCCOCCNc5cccc6c5C(=O)N(C5CCC(=O)NC5=O)C6=O)CC4)cc3OCCO)ncc21 (stereo not shown) [Example 98]")
"60 to 80%"
>>> test_result("COc1cc(C(=O)N[C@H]2CCN(C(=O)CCN3CCN(c4ccc5c(c4)C(=O)N(C4CCC(=O)NC4=O)C5=O)CC3)C2)c(F)cc1Nc1ncc2c(n1)N(C1CCCC1)CC(F)(F)C(=O)N2C (stereo partly shown) [Compound 136]")
"≥ 80%"

----------
target: PLK1 (Homo sapiens, UniProt P53350); construct: endogenous in cells; host or cells: HeLa; assay: PLK1 protein degradation in HeLa cells, Western blotting (PLK1/GAPDH ratio); format: cell-based; conditions: 6 hours compound incubation, measured only if the grade of Dmax is A or B
Catalogue of compounds with associated DC50
VALUE KIND: DC50

>>> test_result("COc1cc(C(=O)NC2CCN(CCCCCCCCCCCNc3cccc4c3C(=O)N(C3CCC(=O)NC3=O)C4=O)CC2)c(F)cc1Nc1ncc2c(n1)N(C1CCCC1)CC(F)(F)C(=O)N2C (centres unmarked)")
"> 500 nM"
>>> test_result("COc1cc(C(=O)N[C@@H]2CCN(C(=O)CCN3CCN(c4ccc5c(c4)C(=O)N(C4CCC(=O)NC4=O)C5=O)CC3)C2)c(F)cc1Nc1ncc2c(n1)N(C1CCCC1)CC(F)(F)C(=O)N2C (some centres unmarked)")
"≤ 50 nM"
>>> test_result("COc1cc(C(=O)N[C@H]2CCN(CC(=O)NCCOCCNc3cccc4c3C(=O)N(C3CCC(=O)NC3=O)C4=O)C2)c(F)cc1Nc1ncc2c(n1)N(C1CCCC1)CC(F)(F)C(=O)N2C (some centres unmarked)")
"≤ 50 nM"
>>> test_result("COc1cc(C(=O)NC2CCN(C(=O)CCCNc3cccc4c3C(=O)N(C3CCC(=O)NC3=O)C4=O)CC2)c(F)cc1Nc1ncc2c(n1)N(C1CCCC1)CC(F)(F)C(=O)N2C (centres unmarked)")
"≤ 50 nM"
>>> test_result("COc1cc(C(=O)NC2CCN(CC3CCN(c4cccc5c4C(=O)N(C4CCC(=O)NC4=O)C5=O)CC3)CC2)c(F)cc1Nc1ncc2c(n1)N(C1CCCC1)CC(F)(F)C(=O)N2C (centres unmarked)")
"≤ 50 nM"
